System: SF-539 CNS
Test: NCI tumour cell line growth inhibition, 48 h
measurementLabel: TGI

Input: # input compound: CN(C)c1ccc(/C=C2\C[C@H]3[C@@H]4CCC5=CC(=O)CC[C@]5(C)[C@H]4CC[C@]3(C)C2=O)cc1 ; wanted: its TGI
Output: > 100 µM

Input: Bench note: what TGI did NC(=S)SC1=NNC2(C(=O)N1)c1ccccc1-c1ccccc12 show?
Output: > 10 µM

Input: What measured TGI goes with Nc1nc(N)nc(-c2cnc3ccccc3c2)n1 ?
Output: > 100 µM

Input: I'd like to know its TGI. The compound in question is CC1=C(C)C(=O)c2c(cc3c4ccccc4ccn23)C1=O
Output: > 100 µM

Input: I am curious: what TGI value has been reported for O=C(/C=C/c1ccccc1Cl)c1ccc(O)cc1 ?
Output: 12.2 µM

Input: Name the recorded TGI for COC(=O)C1=C(C(=O)Nc2cccnc2)C2OC1(C(Cc1ccccc1)Oc1ccccc1)C1OC21 (centres undefined) .
Output: 19.8 µM

Input: # input compound: CCOC(=O)CCC(NC(=O)N1CCN(c2c(C)nc(C)[nH]c2=O)CC1)C(=O)OCC (centres undefined) ; wanted: its TGI
Output: > 100 µM

Input: I would be grateful if you could share the reported TGI for CCOP(=O)(OCC)/C(=C/c1ccccc1)CC(C)=O .
Output: > 100 µM

Input: Form field: reported TGI of N#Cc1cc(-c2ccccc2)[nH]c1-c1nccc2ccccc12
Output: > 100 µM

----------
Could you please report measured TGI for the items listed next?
Test system: HS 578T breast
Test: NCI tumour cell line growth inhibition, 48 h

Input: Write down the reported TGI of CC(=O)O[C@@]12[C@@H]3O[C@@]4(O)C[C@]5(C)[C@H]6C[C@@](C(C)C)(O[C@H]5c5ccoc5)O[C@H]1[C@]6(C4)O[C@]2(O)C(C)=CC3(C)C , test system: HS 578T breast.
Output: > 100 µM

Input: Form field - read-out: TGI; system: HS 578T breast; submitted item: COc1ccc(S(=O)(=O)Nc2cc(/C=C\c3cc(OC)c(OC)c(OC)c3)cc(OC)c2OC)cc1OC
Output: > 100 µM

Input: Report TGI for C=CC1(c2ccc(Cl)c(Cl)c2)OCCO1 tested on HS 578T breast.
Output: > 100 µM

Input: Form field: TGI recorded for O=[N+]([O-])c1nccn1CCCN=c1c2ccccc2n(O)c2ccccc12 with HS 578T breast (enter value)
Output: > 100 µM

Input: Lab note: need TGI for N#Cc1cc2c(n(C3OC(CO)C(O)C(O)C3O)c1=S)CCCCC2 (stereo not given) on HS 578T breast, anyone have it?
Output: > 100 µM

Input: // fetch HS 578T breast TGI for CCc1ccc(/C(C#N)=C/C=C/c2ccccc2)cc1
Output: > 100 µM

Input: Which TGI is reported with HS 578T breast for this entry: CC(C)Cc1ccc(C(C)/C=C2\CCC(CN3CCOCC3)C2=O)cc1 (stereo not given) ?
Output: > 100 µM

Input: Can you look up TGI on HS 578T breast for COc1ccc2cc(-c3ccc(OC)c(OC)c3)c(=O)oc2c1 ?
Output: > 100 µM

Input: TGI of Cn1c(=O)c(Sc2ccccc2F)cc2cnc(NC3CCOCC3)nc21 on HS 578T breast?
Output: > 25 µM

Input: API: value(readout= TGI, system= HS 578T breast, query= O=C(CSc1nc2ccc(Cl)cc2c(=O)n1-c1ccccc1)N=Nc1c(O)[nH]c2ccc(F)cc12 )
Output: > 27 µM

----------
System: OVCAR-8 ovarian
Test: NCI tumour cell line growth inhibition, 48 h
measurementLabel: TGI

Input: Any idea what TGI was measured for CCS(=O)(=O)c1ccc(OC)c(Nc2ncc(-c3cccc(-c4ccccc4F)c3)o2)c1 ?
Output: > 25 µM

Input: # input compound: CCC(C#N)N(Cc1ccc(CN(C(=O)c2ccccc2)C(C#N)CC)cc1)C(=O)c1ccccc1 (centres undefined) ; wanted: its TGI
Output: > 100 µM

Input: Need TGI, item Cc1ccc2c(=O)c(-c3nnsn3)c[nH]c2n1
Output: > 100 µM

Input: Dear colleague, I am looking for the recorded TGI of the following compound: CC(C)CC(=O)N1CCN(C(=O)CC(C)C)c2ccccc21
Output: > 100 µM

Input: TGI for CC(C)N(CCCNc1c2ccccc2nc2cccc([N+](=O)[O-])c12)C(C)C ?
Output: < 0.0467 µM

Input: # TGI lookup, item O=CC(O)C(O)C(O)COc1cc(CO)cc2c1C(=O)c1ccccc1C2=O (centres undefined)
Output: > 100 µM

Input: Fill in: TGI of Cn1ccnc1SC(F)(F)c1nc2ccccc2o1 is ___
Output: > 100 µM

Input: Consider the compound CC1C(=O)CCC1C(Sc1ccccc1)(Sc1ccccc1)Sc1ccccc1 (centres undefined) and give its measured TGI.
Output: > 100 µM

Input: Recorded TGI of NC(Cc1cc(Br)c(O)c(Br)c1)C(=O)O (centres undefined) , please.
Output: > 100 µM

----------
System: ACHN renal
Test: NCI tumour cell line growth inhibition, 48 h
measurementLabel: TGI

Input: Fill in the recorded TGI for this molecule, with ACHN renal as test system: COC1OC(COCc2ccc(Cl)cc2)C(OCc2ccc(Cl)cc2)C1O (stereo unspecified)
Output: 40.2 µM

Input: Field: TGI (ACHN renal). Entry: [Ce+3].[Cl-].[O-]/N=C(\c1ccccc1)c1ccccn1.[O-]/N=C(\c1ccccc1)c1ccccn1.[O-]/N=C(\c1ccccc1)c1ccccn1
Output: > 100 µM

Input: For the record O=C1C(=O)c2ccccc2C=C1[N+](=O)[O-] , what value of TGI is listed for ACHN renal?
Output: > 100 µM

Input: Report TGI for NC(Cc1cc(Br)c(O)c(Br)c1)C(=O)O (stereo unspecified) tested on ACHN renal.
Output: > 100 µM

Input: Could you share what TGI was measured for O=P(O)(O)OP(=O)(O)O , tested on ACHN renal?
Output: > 100 µM

Input: Recall the recorded TGI for COC(=O)C1=C(C(=O)Nc2cccnc2)C2OC1(C(Cc1ccccc1)Oc1ccccc1)C1OC21 (stereo unspecified) with ACHN renal and state it.
Output: 3 µM

Input: Param readout= TGI; system= ACHN renal; entry= CCS(=O)(=O)c1ccc(OC)c(Nc2ncc(-c3cccc(-c4ccccc4F)c3)o2)c1 ; returns value.
Output: > 25 µM

Input: What is its TGI for ACHN renal? Entry: Nc1sccc1S(=O)(=O)c1ccsc1N
Output: > 100 µM

Input: Please state recorded TGI (tested on ACHN renal) of COc1cccc(N=N/C(=N/NC(=O)c2cc(Cl)ccc2O)c2ccc(N(CCC#N)CCC#N)cc2C)c1
Output: > 100 µM

Input: Observed TGI on ACHN renal for COc1cc(-c2nn(C)nc2-c2cc3ccccc3s2)cc(OC)c1OC , please.
Output: > 100 µM

Input: State its TGI on ACHN renal: COC(=O)C1C2CC3C(OC(=O)C31)C2I (stereo unspecified)
Output: > 100 µM

Input: Report TGI for O=C1OCC2=C1C(c1cccc([N+](=O)[O-])c1)c1cc3c(cc1N2CCO)CCC3 (stereo unspecified) tested on ACHN renal.
Output: > 50 µM

Input: Please provide the recorded TGI for C[C@]1(O)CC(=O)c2c(c(-c3ccc4cc5c(c(O)c4c3O)C(=O)C[C@@](C)(O)C5)c3cccc(O)c3c2O)C1 , tested on ACHN renal.
Output: 18 µM

Input: I'm curious: which TGI was measured for Cc1ccccc1NC(=O)N/C(N)=N/c1nc2ccccc2s1 tested on ACHN renal?
Output: > 100 µM

Input: // lookup TGI | system=ACHN renal | key= O=[N+]([O-])c1ccc(Oc2cccnc2)c([N+](=O)[O-])c1
Output: 13 µM

Input: Record CC(/C=C/C=C/C=C/C=C/C=C/C(O)=C1/C(=O)C(CCC(=O)O)N(C)C1=O)=C\C(C)C(OC1CC(O)C(O)C(C)O1)C(C)C (stereo unspecified) : what is its TGI with ACHN renal?
Output: 10.4 µM

Input: Form: Entry = COc1ccc2cc(-c3ccc(OC)c(OC)c3)c(=O)oc2c1 | System = ACHN renal | TGI = ____
Output: > 100 µM

Input: Give recorded TGI with ACHN renal for the following molecule: O=[N+]([O-])c1ccccc1S(=O)(=O)c1ccccc1[N+](=O)[O-]
Output: > 100 µM

Input: What reported TGI corresponds to COC1=C(C)C(=O)C2C(C1=O)C(c1ccc(OC)c(OC)c1)[C@H]2C (stereo partly specified) on ACHN renal?
Output: > 100 µM

Input: Field: TGI (ACHN renal). Entry: COC(=O)C(CCC1(C)OCCO1)C(C)=O (stereo unspecified)
Output: > 100 µM

Input: # query: TGI | item CCOc1cc(NC(C)=O)ccc1C(=O)N/N=C/c1ccco1 | system: ACHN renal
Output: > 100 µM
